Test system: K-562 leukemia
Mark one answer only. Choices: active, inactive

Recorded results for 8 compounds are shown here.
compound=COc1ccc(-c2cnc3ccnn3c2-c2cc(OC)c(OC)c(OC)c2)cc1 measurement_target="K-562 leukemia" label_value=inactive
compound=NC1=C(Cl)C(=O)c2ccc(S(N)(=O)=O)cc2C1=O measurement_target="K-562 leukemia" label_value=active
compound="CC1(C)CC(=O)C2=C(C1)NC(SSC1=C(C#N)C(c3ccc(F)cc3)C3=C(CC(C)(C)CC3=O)N1)=C(C#N)C2c1ccc(F)cc1 (configuration not stated)" measurement_target="K-562 leukemia" label_value=inactive
compound=Cc1cccc2c(N=Nc3ccc(S(N)(=O)=O)cc3)c(O)[nH]c12 measurement_target="K-562 leukemia" label_value=inactive
compound=COc1ccc(/C(C)=C(\c2ccc(Cl)cc2)c2ccc(OCCN3CCCC3)cc2)cc1F measurement_target="K-562 leukemia" label_value=inactive
compound=C#CCN=C(N/N=C/c1ccc([N+](=O)[O-])o1)NS(=O)(=O)c1cc(C)c(Cl)cc1SCC(N)=O measurement_target="K-562 leukemia" label_value=inactive
compound=O=C(Nc1ccccc1)Nc1cccc(-n2cc(-c3ccncc3)c(-c3ccc(O)c(Cl)c3)n2)c1 measurement_target="K-562 leukemia" label_value=inactive
compound=CCOC(=O)c1ccc(N(CCOS(C)(=O)=O)CCOS(C)(=O)=O)cc1C measurement_target="K-562 leukemia" label_value=inactive

Please examine the following record next.
Qu. State the result this test recorded for COc1cc(C#N)cc(OC)c1OCCOCCOc1c(OC)cc(C#N)cc1OC .
Ans. inactive

###

# TGI per record follows
Test system: SK-MEL-28 melanoma
experiment summary: NCI tumour cell line growth inhibition, 48 h

Example cases with answers are listed next.
molecule=COc1cc(-c2cc(=O)c3ccccc3o2)ccc1N assay_endpoint=TGI measured_value="> 100 µM"
molecule=CN=C1Nc2ccc(Cl)cc2C(c2ccccc2)=NN1C assay_endpoint=TGI measured_value="> 100 µM"
molecule="CC(=O)NC(CCCCNC(=O)N(CCCl)N=O)C(=O)NCc1ccccc1 (stereo not given)" assay_endpoint=TGI measured_value="> 100 µM"
molecule=C[C@]12CCC(=O)C=C1CC[C@@H]1[C@@H]2CC[C@]2(C)C(=O)[C@H](n3ccnc3)C[C@@H]12 assay_endpoint=TGI measured_value="> 100 µM"
molecule="N#CC(c1ccccc1)N1CCCN(C(C#N)c2ccccc2)C1c1ccccc1O (stereo not given)" assay_endpoint=TGI measured_value="> 100 µM"
molecule="COC(=O)C1C(O)CCC2CN3CCc4c([nH]c5cccc(OC)c45)C3CC21 (stereo not given)" assay_endpoint=TGI measured_value="> 100 µM"
molecule=O=C(O)c1ccc(O)c(N=Nc2cc(S(=O)(=O)O)c3ccccc3c2O)c1 assay_endpoint=TGI measured_value="> 100 µM"
molecule=Cc1n[nH]c(=S)n1/N=C/c1ccc(F)c(Oc2ccccc2)c1 assay_endpoint=TGI measured_value="82.6 µM"
molecule="c1ccc(C2C3=C(CCCC3)Nc3nc4cc5ccccc5cc4n32)cc1 (stereo not given)" assay_endpoint=TGI measured_value="> 100 µM"

Consider the record given below.
Qu. Answer briefly: TGI recorded on SK-MEL-28 melanoma for Nc1nc(Nc2ccccc2)sc1C(=O)c1ccc(Cl)cc1
Ans. > 100 µM

###

System: NCI-H522 lung
experiment summary: NCI tumour cell line growth inhibition, 48 h; in the data active = GI50 below about 0.43 µM; inactive = the rest
Please state which outcome applies, choosing from true (active), false (inactive)

See these solved cases before continuing.
molecule=Cc1cccc2c(N=Nc3ccc(S(N)(=O)=O)cc3)c(O)[nH]c12 label_value=false
molecule=c1cc(OCCN2CCCCCC2)ccc1CNc1ccc2nc(CCC3CCCCC3)[nH]c2c1 label_value=false
molecule="CCCc1cc2cc(-n3nc(C)c4c3CC(C)(C)CC4=O)cc(NC3CCC(O)CC3)c2c(=O)[nH]1 (stereo not given)" label_value=true
molecule=O=C1C(=O)c2ccccc2-c2ccccc21 label_value=false

Attention now shifts to the item below.
Qu. What did the test return for CCOC(=O)c1c(-c2ccccc2)[n+](=O)c2ccc(Cl)cc2n1[O-] ?
Ans. false

Values from PubChem BioAssay (NCI)
